biological target: NLRP3 (Homo sapiens); assay: Measurement of IL-1β production in PMA-differentiated THP-1 cells (NLRP3 hIL1B)
pEC50: −log10 of the molar value.
Could you label it Y if measured pEC50 is 6 or higher, and N otherwise?

[
  {
    "molecule": "CO[C@@H]1C[C@@H](Nc2nc(N)nc3cc(-c4ccn[nH]4)ccc23)C[C@H]1O (racemic)",
    "classLabel": "N"
  },
  {
    "molecule": "Nc1nc(N[C@H]2CC[C@H](O)C2)c2ccc(-c3ccn[nH]3)cc2n1",
    "classLabel": "Y"
  },
  {
    "molecule": "C[C@@H](O)CNc1nc(N)nc2cc(-c3ccn[nH]3)ccc12",
    "classLabel": "Y"
  },
  {
    "molecule": "Nc1nc(NCC2(CO)CC2)c2ccc(-c3ccn[nH]3)cc2n1",
    "classLabel": "Y"
  },
  {
    "molecule": "NC(=O)CC(Nc1nc(N)nc2cc(-c3ccn[nH]3)ccc12)c1cccnc1 (stereo not shown)",
    "classLabel": "N"
  },
  {
    "molecule": "Cc1cccc2nc(CNc3nc(N)nc4cc(-c5ccn[nH]5)ccc34)cn12",
    "classLabel": "N"
  },
  {
    "molecule": "Nc1nc(NC2(CO)CC2)c2ccc(-c3ccn[nH]3)cc2n1",
    "classLabel": "Y"
  },
  {
    "molecule": "Nc1nc(N[C@@H]2COCC[C@H]2O)c2ccc(-c3ccn[nH]3)cc2n1",
    "classLabel": "N"
  },
  {
    "molecule": "Nc1nc(NC[C@@H](O)CO)c2ccc(-c3ccn[nH]3)cc2n1",
    "classLabel": "N"
  },
  {
    "molecule": "COc1cc(-c2cc[nH]n2)cc2nc(N)nc(NCc3cc[nH]n3)c12",
    "classLabel": "N"
  },
  {
    "molecule": "Nc1nc(NC(CO)c2nccs2)c2ccc(-c3ccn[nH]3)cc2n1 (stereo not shown)",
    "classLabel": "N"
  },
  {
    "molecule": "CC(CCO)Nc1nc(N)nc2cc(-c3ccn[nH]3)ccc12 (single isomer, unassigned) [Example 201]",
    "classLabel": "Y"
  },
  {
    "molecule": "Nc1nc(NCC(F)F)c2ccc(-c3ccn[nH]3)cc2n1",
    "classLabel": "Y"
  }
]

* * *

molecular target: UniProt Q96P20; test: Measurement of IL-1β production in PMA-differentiated THP-1 cells (NLRP3 hIL1B)
Entries and their measured EC50 follow.
attributeMeasured: EC50 (nM)

[
  {
    "compound": "CCn1cc(CNc2nc(N)nc3cc(-c4ccn[nH]4)ccc23)cn1 [Example 168]",
    "attributeMeasured": "EC50",
    "value": 1280
  },
  {
    "compound": "Nc1nc(NCc2nc[nH]n2)c2ccc(-c3ccn[nH]3)cc2n1 [Example 32]",
    "attributeMeasured": "EC50",
    "value": 640
  },
  {
    "compound": "Cc1cnc(CNc2nc(N)nc3cc(-c4ccn[nH]4)ccc23)cn1 [Example 80]",
    "attributeMeasured": "EC50",
    "value": 710
  },
  {
    "compound": "Nc1nc(NC2CCS(=O)(=O)CC2)c2ccc(-c3ccn[nH]3)cc2n1 [Example 55]",
    "attributeMeasured": "EC50",
    "value": 19700
  }
]

* * *

Entries and their measured pEC50 follow.
molecular target: NLRP3 (Homo sapiens, UniProt Q96P20); test: Measurement of IL-1β production in PMA-differentiated THP-1 cells (NLRP3 hIL1B)
Sequence (Q96P20 whole entry): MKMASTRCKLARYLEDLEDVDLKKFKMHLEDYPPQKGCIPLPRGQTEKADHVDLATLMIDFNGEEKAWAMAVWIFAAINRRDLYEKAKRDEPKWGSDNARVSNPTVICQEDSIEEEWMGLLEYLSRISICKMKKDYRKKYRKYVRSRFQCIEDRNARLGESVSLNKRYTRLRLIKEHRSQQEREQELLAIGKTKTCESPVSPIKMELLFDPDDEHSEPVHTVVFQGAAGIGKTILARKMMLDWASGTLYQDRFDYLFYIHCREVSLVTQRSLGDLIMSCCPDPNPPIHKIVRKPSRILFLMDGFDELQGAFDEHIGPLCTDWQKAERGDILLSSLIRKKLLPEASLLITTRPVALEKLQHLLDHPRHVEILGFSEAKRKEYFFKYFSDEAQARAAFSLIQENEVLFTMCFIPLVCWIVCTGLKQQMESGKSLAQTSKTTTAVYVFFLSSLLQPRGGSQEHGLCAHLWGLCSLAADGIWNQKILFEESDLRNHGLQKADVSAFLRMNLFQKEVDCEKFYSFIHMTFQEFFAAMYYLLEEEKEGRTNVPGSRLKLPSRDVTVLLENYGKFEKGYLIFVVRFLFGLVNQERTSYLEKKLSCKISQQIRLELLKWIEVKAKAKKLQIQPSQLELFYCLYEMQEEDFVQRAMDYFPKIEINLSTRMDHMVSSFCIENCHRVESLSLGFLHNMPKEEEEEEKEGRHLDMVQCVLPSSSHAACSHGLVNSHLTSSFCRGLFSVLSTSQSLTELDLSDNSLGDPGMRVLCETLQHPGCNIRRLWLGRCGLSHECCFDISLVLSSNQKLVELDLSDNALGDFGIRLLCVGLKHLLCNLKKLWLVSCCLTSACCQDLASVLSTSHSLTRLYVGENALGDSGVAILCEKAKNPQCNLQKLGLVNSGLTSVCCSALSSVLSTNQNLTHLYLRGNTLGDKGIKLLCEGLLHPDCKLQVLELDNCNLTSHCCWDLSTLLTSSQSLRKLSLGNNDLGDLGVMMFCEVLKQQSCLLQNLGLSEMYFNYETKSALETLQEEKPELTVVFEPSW
pEC50: −log10 of the molar value.

[
  {
    "compound": "CCCC(CCO)Nc1nc(N)nc2cc(-c3ccn[nH]3)ccc12 (single isomer, unassigned) [Example 98]",
    "pEC50": 6.07
  },
  {
    "compound": "Nc1nc(Nc2ccn(CCO)n2)c2ccc(-c3ccn[nH]3)cc2n1",
    "pEC50": 4.74
  },
  {
    "compound": "CC(C)(O)C(O)CNc1nc(N)nc2cc(-c3ccn[nH]3)ccc12 (racemic) [Example 8]",
    "pEC50": 5.67
  },
  {
    "compound": "Nc1nc(N[C@H]2COCC[C@@H]2O)c2ccc(-c3ccn[nH]3)cc2n1",
    "pEC50": 5.87
  }
]

* * *

Entries and their measured EC50 follow.
Target: NLRP3 (Homo sapiens, UniProt Q96P20)
Assay: Measurement of IL-1β production in PMA-differentiated THP-1 cells (NLRP3 hIL1B)
Description: Measurement of IL-1β Production in PMA-Differentiated THP-1 Cells (§1) THP-1 cells were purchased from the American Type Culture Collection and sub-cultured according to instructions from the supplier. […] Cell free supernatant was collected and the production of IL-1β was evaluated by ELISA. […] as §1
attributeMeasured: EC50 (nM)

[
  {
    "compound": "Nc1nc(NCc2ccn(-c3ccccn3)n2)c2ccc(-c3ccn[nH]3)cc2n1",
    "readingUnit": "nM",
    "value": 230
  },
  {
    "compound": "COCC1(CNc2nc(N)nc3cc(-c4cc[nH]n4)ccc23)CC1",
    "readingUnit": "nM",
    "value": 230
  },
  {
    "compound": "Cc1cc(-c2cc[nH]n2)cc2nc(N)nc(NCCCO)c12",
    "readingUnit": "nM",
    "value": 650
  },
  {
    "compound": "CC(C)(CO)CNc1nc(N)nc2cc(-c3ccn[nH]3)ccc12",
    "readingUnit": "nM",
    "value": 230
  },
  {
    "compound": "Nc1nc(NCCCO)c2cc(Cl)c(-c3ccn[nH]3)cc2n1",
    "readingUnit": "nM",
    "value": 6840
  },
  {
    "compound": "CCCCONc1nc(N)nc2cc(-c3ccn[nH]3)ccc12",
    "readingUnit": "nM",
    "value": 630
  },
  {
    "compound": "Nc1nc(N[C@H]2CCC[C@@H](O)C2)c2ccc(-c3ccn[nH]3)cc2n1 (single isomer, unassigned) [Example 178]",
    "readingUnit": "nM",
    "value": 660
  },
  {
    "compound": "Nc1nc(NCc2cnsc2)c2ccc(-c3ccn[nH]3)cc2n1",
    "readingUnit": "nM",
    "value": 180
  },
  {
    "compound": "Nc1nc(NCc2cncs2)c2ccc(-c3ccn[nH]3)cc2n1",
    "readingUnit": "nM",
    "value": 730
  },
  {
    "compound": "Nc1nc(NCc2cc3n(n2)CCCO3)c2ccc(-c3ccn[nH]3)cc2n1",
    "readingUnit": "nM",
    "value": 2150
  },
  {
    "compound": "Nc1nc(NC(CO)c2cc[nH]n2)c2ccc(-c3ccn[nH]3)cc2n1 (centres unmarked)",
    "readingUnit": "nM",
    "value": 5390
  },
  {
    "compound": "Nc1nc(NCc2cocn2)c2ccc(-c3ccn[nH]3)cc2n1",
    "readingUnit": "nM",
    "value": 490
  },
  {
    "compound": "Nc1nc(N[C@@H]2CCOC2)c2c(F)cc(-c3cc[nH]n3)cc2n1",
    "readingUnit": "nM",
    "value": 1220
  },
  {
    "compound": "Nc1nc(N[C@H]2CC[C@@H](CO)C2)c2ccc(-c3ccn[nH]3)cc2n1",
    "readingUnit": "nM",
    "value": 1750
  },
  {
    "compound": "Cn1cnc(CNc2nc(N)nc3cc(-c4ccn[nH]4)ccc23)n1",
    "readingUnit": "nM",
    "value": 1410
  },
  {
    "compound": "CO[C@H]1C[C@H](Nc2nc(N)nc3cc(-c4ccn[nH]4)ccc23)C1",
    "readingUnit": "nM",
    "value": 140
  },
  {
    "compound": "Nc1nc(NCC(F)(F)CO)c2ccc(-c3ccn[nH]3)cc2n1",
    "readingUnit": "nM",
    "value": 220
  },
  {
    "compound": "Nc1nc(NCCCO)c2c(F)cc(-c3ccn[nH]3)cc2n1",
    "readingUnit": "nM",
    "value": 240
  },
  {
    "compound": "Nc1nc(NC[C@H]2C[C@H](O)C2)c2ccc(-c3ccn[nH]3)cc2n1",
    "readingUnit": "nM",
    "value": 1240
  },
  {
    "compound": "CC(CO)(CO)Nc1nc(N)nc2cc(-c3ccn[nH]3)ccc12",
    "readingUnit": "nM",
    "value": 2410
  },
  {
    "compound": "COc1cc(-c2cc[nH]n2)cc2nc(N)nc(N[C@@H]3CCOC3)c12",
    "readingUnit": "nM",
    "value": 650
  },
  {
    "compound": "CC(C)(O)CNc1nc(N)nc2cc(-c3ccn[nH]3)ccc12",
    "readingUnit": "nM",
    "value": 390
  },
  {
    "compound": "Nc1nc(NCc2ncccn2)c2ccc(-c3ccn[nH]3)cc2n1",
    "readingUnit": "nM",
    "value": 320
  },
  {
    "compound": "Nc1nc(N[C@H]2C[C@H](O)C2)c2ccc(-c3ccn[nH]3)cc2n1",
    "readingUnit": "nM",
    "value": 160
  },
  {
    "compound": "CCCC(CCO)Nc1nc(N)nc2cc(-c3ccn[nH]3)ccc12 (single isomer, unassigned) [Example 97]",
    "readingUnit": "nM",
    "value": 710
  },
  {
    "compound": "Nc1nc(N[C@H]2C[C@@H](O)C2)c2ccc(-c3ccn[nH]3)cc2n1",
    "readingUnit": "nM",
    "value": 1590
  },
  {
    "compound": "Nc1nc(N[C@H]2C[C@H](CO)C2)c2ccc(-c3ccn[nH]3)cc2n1",
    "readingUnit": "nM",
    "value": 90
  },
  {
    "compound": "Nc1nc(N[C@H]2C[C@@H](O)C[C@@H]2O)c2ccc(-c3cc[nH]n3)cc2n1 (racemic)",
    "readingUnit": "nM",
    "value": 1560
  },
  {
    "compound": "C[C@@]1(O)CC[C@@H](Nc2nc(N)nc3cc(-c4ccn[nH]4)ccc23)C1 (racemic)",
    "readingUnit": "nM",
    "value": 4170
  },
  {
    "compound": "Cn1ccnc1C(O)CNc1nc(N)nc2cc(-c3ccn[nH]3)ccc12 (single isomer, unassigned) [Example 150]",
    "readingUnit": "nM",
    "value": 2450
  },
  {
    "compound": "Nc1nc(NCCCCCO)c2ccc(-c3ccn[nH]3)cc2n1",
    "readingUnit": "nM",
    "value": 220
  },
  {
    "compound": "COCCN1CCCC1CNc1nc(N)nc2cc(-c3ccn[nH]3)ccc12 (centres unmarked)",
    "readingUnit": "nM",
    "value": 2600
  }
]
